Read-out: Interferon-gamma inducible Protein 10 (IP10), CXCL10 (gene 3627)
Assay: BSK_KF3CT_IP10: BioMAP Diversity Plus: KF3CT Assay for Interferon-gamma inducible Protein 10 (IP10) Biomarker Activity (AID 2283068)
Details: primary human keratinocytes with fibroblasts; actives raise or lower the signal
Active and inactive are the calls of the source. Rule for the calls: active = hit-call score of the fitted dose curve at least 0.9, where 1 is the maximum; inactive = score below 0.9.
Response enum: active, inactive

Field: example entries. Status: answers known.
smiles repr: CCCOc1nn(C(=O)NS(=O)(=O)c2ccccc2C(=O)OC)c(=O)n1C
label value: inactive
//
smiles repr: C[N+]1(C)CCCCC1
label value: inactive
//
smiles repr: C=C(C)[C@H]1Cc2c(ccc3c2O[C@@H]2COc4cc(OC)c(OC)cc4[C@@H]2C3=O)O1
label value: active

Query: recorded result category for "CN(C)C(=O)Nc1cccc(C(F)(F)F)c1" in this test
inactive

Dear all, I need the recorded test outcome for "CNc1cnn(-c2cccc(C(F)(F)F)c2)c(=O)c1Cl" , thank you.
inactive

Identify the outcome logged in this assay for the compound shown: "CN(C)[C@@H]1C(=O)C(C(N)=O)=C(O)[C@@]2(O)C(=O)C3=C(O)c4c(O)cccc4[C@@](C)(O)[C@H]3[C@H](O)[C@@H]12"
inactive

###

Test: CCTE_Mundy_HCI_iCellGluta_NOG_NeuronCount: CCTE's Neurite Outgrowth Assay in iCellGluta cells for Neuron Count, Mundy Lab (AID 2284340);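 note: cells fixed about 48 h after compound addition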
Results filed as inconclusive are left out. The source made the active and inactive calls. Rule for the calls: active = hit-call score of the fitted dose curve at least 0.9, where 1 is the maximum; inconclusive = response in the unintended direction; inactive = score below 0.9.
One label from this list, please: active, inactive

For this compound, state the assay outcome: "CCOP(=O)(OCC)Oc1cc(C)nc(C(C)C)n1"
inactive

Hey, what did the test say about "CON=C(C(=O)OC)c1ccccc1CON=C(C)c1cccc(C(F)(F)F)c1" ?
active

Test call for this compound, please: COP(=O)(OC)OC(Br)C(Cl)(Cl)Br (stereo not given)
active

Please indicate how the test categorized CCOP(=O)(NC(C)C)Oc1ccc(SC)c(C)c1 (stereo not given) .
active

What call does the record list for "CCCSP(=O)(OCC)SCCC" ?
inactive

What call does the record list for "CCOP(=S)(OCC)SCCSCC" ?
inactive

Tell me the assay call for "CN(C)[C@@H]1C(=O)C(C(N)=O)=C(O)[C@@]2(O)C(=O)C3=C(O)c4c(O)cccc4[C@@](C)(O)[C@H]3[C@H](O)[C@@H]12" please.
active

# outcome recorded in this test, key = "C=C(C)[C@H]1Cc2c(ccc3c2O[C@@H]2COc4cc(OC)c(OC)cc4[C@@H]2C3=O)O1"
active

Which result was noted for this compound in the test: CCOP(=S)(OCC)OC(Cl)C(Cl)(Cl)Cl (stereo not given)
inactive

Recorded test outcome, item "S=C1NCCN1"
inactive

###

Assay: BSK_BE3C_SRB: Viability Assessment in the BioMAP Diversity Plus: BE3C Assay (AID 2283028);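 note: measured 24 h after chemical dosing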
Settings: primary human bronchial epithelial cells
Active and inactive are the calls of the source. How the source made its calls: active means hit-call score of the fitted dose curve at least 0.9, where 1 is the maximum; inactive means score below 0.9.
Hello, when you answer, please use one of the following outcomes: active, inactive

Illustrative cases are given below, each with its answer.
compound: C#CCC1=C(C)C(OC(=O)C2C(C=C(C)C)C2(C)C)CC1=O (stereo not drawn)
label value: active

compound: CC(C)=CC1C(C(=O)OCN2C(=O)C3=C(CCCC3)C2=O)C1(C)C (stereo not drawn)
label value: inactive

Then this compound:
Short answer needed: outcome of this test for CCOP(=S)(Oc1cnc(C(C)(C)C)nc1)OC(C)C (stereo not drawn) ?
inactive
